target: Mu-type opioid receptor (Homo sapiens) + Delta-type opioid receptor (Homo sapiens) (UniProt P35372+P41143); assay: OPRM1-OPRD1 heterodimer agonist potency – cell-based, luminescence, counter-screen for MC4R biased agonist project, dose response (AID 602264); conditions: cell-based OPRM1-OPRD1 heterodimerization
Sequence (P35372 whole entry, looked up): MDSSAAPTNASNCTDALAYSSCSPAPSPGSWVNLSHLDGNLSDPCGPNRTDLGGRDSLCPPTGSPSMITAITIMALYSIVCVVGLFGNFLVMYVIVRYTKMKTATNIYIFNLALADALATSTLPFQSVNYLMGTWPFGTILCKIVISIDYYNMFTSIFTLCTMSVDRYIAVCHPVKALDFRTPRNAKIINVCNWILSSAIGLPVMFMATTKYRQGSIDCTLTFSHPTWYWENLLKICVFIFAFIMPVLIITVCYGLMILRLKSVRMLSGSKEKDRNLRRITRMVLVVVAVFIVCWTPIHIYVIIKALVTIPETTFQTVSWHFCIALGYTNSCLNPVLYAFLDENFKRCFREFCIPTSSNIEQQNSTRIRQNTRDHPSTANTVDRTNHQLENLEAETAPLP
Sequence (P41143 whole entry, looked up): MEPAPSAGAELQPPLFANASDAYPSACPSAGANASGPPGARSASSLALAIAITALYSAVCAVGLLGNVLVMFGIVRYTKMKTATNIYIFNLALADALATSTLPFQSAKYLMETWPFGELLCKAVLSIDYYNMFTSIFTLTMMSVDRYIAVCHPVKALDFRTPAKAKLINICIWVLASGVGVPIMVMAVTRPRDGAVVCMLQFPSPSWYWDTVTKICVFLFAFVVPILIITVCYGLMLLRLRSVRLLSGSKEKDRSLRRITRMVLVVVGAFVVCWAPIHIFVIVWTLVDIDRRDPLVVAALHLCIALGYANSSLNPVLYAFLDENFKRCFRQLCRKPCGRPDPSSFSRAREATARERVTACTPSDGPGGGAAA
Activity calls are given as the source filed them. No rule for the calls is given here.
EC50 listing for selected compounds.

COc1cc(-c2cc(NC=O)c3ncc(-c4ccc(C(C)=O)cc4)n3c2)cc(OC)c1OC
> 92.5 µM (inactive)
Cc1ccc2sc(N(CCCN(C)C)C(=O)c3ccc(Br)s3)nc2c1C
> 64.6 µM (inactive)
CCc1ccc(OCCNc2cc(N3CCNC(C)C3)ccc2[N+](=O)[O-])cc1 (stereo not given)
> 92.5 µM (inactive)

Below: the item to evaluate.
What EC50 value was documented for this compound, CN(C)CCOc1ccc(-c2c(-c3ccsc3)sc3ccccc23)cc1 ?
> 92.5 µM (inactive)

---

molecular target: Mu-type opioid receptor (Homo sapiens) + Delta-type opioid receptor (Homo sapiens) (UniProt P35372+P41143); experiment: OPRM1-OPRD1 heterodimer agonist potency – cell-based, luminescence, counter-screen for MC4R biased agonist project, dose response (AID 602264); settings: cell-based OPRM1-OPRD1 heterodimerization
The source made the active and inactive calls. The rule behind the calls is not given here.
metric: EC50

Example entries and their recorded answers appear below.
NC(Cc1ccc(Cl)cc1)c1csc(NC(=O)Nc2ccccc2)n1 (stereo unspecified)
> 64.6 µM (inactive)
COc1cccc(-c2cnc3c(NC(C)=O)cc(-c4cc(F)ccc4OC)cn23)c1
> 92.5 µM (inactive)
CCN1CCN(Cc2ccc(NC(=O)c3cc(NC(=O)c4cc5cccc(OC)c5o4)cc(OC)c3)cc2C(F)(F)F)CC1
> 64.6 µM (inactive)
O=C(NC(c1ccc(Cl)cc1)c1ccccn1)C1CCN(CCOc2ccc(Cl)cc2Cl)CC1 (stereo unspecified)
> 92.4 µM (inactive)
COc1ccccc1-c1cc(NC(C)=O)c2ncc(-c3cccc(C(F)(F)F)c3)n2c1
> 92.5 µM (inactive)

What does the data say about its EC50? Entry: Cc1cccc(NC(=S)NC(=O)C(c2ccccc2)c2ccccc2)n1
> 92.5 µM (inactive)

Reported EC50, compound COc1ccc(-c2cc(NC=O)c3ncc(-c4cccc(C(F)(F)F)c4)n3c2)cc1OC : ____
> 64.6 µM (inactive)

Using the record for COc1cc(C(=O)Nc2nnc(-c3sccc3C)s2)cc(OC)c1OC , report its EC50.
> 92.5 µM (inactive)

---

biological target: Mu-type opioid receptor (Homo sapiens) + Delta-type opioid receptor (Homo sapiens) (UniProt P35372+P41143); test: OPRM1-OPRD1 heterodimer agonist potency – cell-based, luminescence, counter-screen for MC4R biased agonist project, dose response (AID 602264); settings: cell-based OPRM1-OPRD1 heterodimerization
The source made the active and inactive calls. No rule for the calls is given here.
metric: EC50

Dear colleague, I am looking for the recorded EC50 of the following compound: COc1cccc2sc(N(CCCN(C)C)C(=O)C(c3ccccc3)c3ccccc3)nc12
> 64.6 µM (inactive)

---

biological target: Mu-type opioid receptor (Homo sapiens) + Delta-type opioid receptor (Homo sapiens) (UniProt P35372+P41143); assay: OPRM1-OPRD1 heterodimer agonist potency – cell-based, luminescence, counter-screen for MC4R biased agonist project, dose response (AID 602264); conditions: cell-based OPRM1-OPRD1 heterodimerization
Active and inactive are the calls of the source. The rule behind the calls is not given here.
Quick reference: EC50 of the listed items.

Bench note: what EC50 did OC(CNCCc1ccc(C(F)(F)F)cc1)COc1cccc2ccccc12 (stereo not given) show?
> 92.5 µM (inactive)

Report EC50 for CC(=O)Nc1cc(-c2ccc(N(C)C)cc2)cn2c(-c3ccc(F)cc3)cnc12 please.
> 64.6 µM (inactive)

Given the entry Cc1cc(C)nc(Nc2nc(C(N)Cc3ccc(Cl)cc3)cs2)n1 (stereo not given) , report its measured EC50.
> 92.5 µM (inactive)

Any idea what its EC50 is? The molecule is O=C1OC(c2ccccc2)(c2ccc(O)cc2)c2ccccc21 (stereo not given)
> 92.5 µM (inactive)

Give the measured EC50 of Cc1ccc(O)c(C(=O)/C=C/c2ccc3c(c2)OCCCO3)c1 .
> 64.6 µM (inactive)

Please look up its EC50: COc1ccc(-c2ccc3c(c2)S(=O)(=O)c2cccc(C(=O)NCc4cc(C)oc4C(F)(F)F)c2C3=O)cc1OC
> 92.5 µM (inactive)

Request the reported EC50 associated with Cc1cc(C)c(CN2CCN(CCCn3cnc(C(=O)Nc4ccc(C)c(C)c4)n3)CC2)c(C)c1
> 92.5 µM (inactive)

Any idea what its EC50 is? The molecule is COc1ccccc1NC(=O)Nc1nc(C(N)Cc2ccc(Cl)cc2)cs1 (stereo not given)
> 92.5 µM (inactive)

Consider the molecule Cc1ccc(C(=O)c2coc3c2C(=O)C(=O)c2ccccc2-3)cc1 and give its measured EC50.
> 64.6 µM (inactive)
